- System: HSkMC (human skeletal muscle cells)
- PROCEDURE DETAILS: cytotoxicity call (relative viability < 0.9)
- EXPERIMENTAL CONDITIONS: 10 µM
Hit rate of the full screen: of about 39,000 compounds, about 1,500 (3.8%) were called active. This is one part of a sample in which actives are shown more often than they occur.
Pick from active, inactive when you respond.

Query string: Please share the test call associated with C[C@@H]1CN([C@H](C)CO)C(=O)c2c(c3ccccc3n2C)-c2ccccc2CO[C@H]1CN(C)C(=O)c1cc(Cl)cc(Cl)c1 .
Result string: active

Query string: I would be grateful if you could indicate the recorded call for CN1C(=O)c2cc(NC(=O)C3CCCC3)ccc2OC[C@@H]2O[C@H](CC(=O)NCCc3ccncc3)CC[C@@H]21 .
Result string: inactive

Query string: Could you kindly confirm the outcome this assay logged for Cc1noc(C)c1NC(=O)Nc1ccc2c(c1)C(=O)N([C@H](C)CO)C[C@@H](C)[C@H](CN(C)Cc1ccc(-c3ccccc3)cc1)O2 ?
Result string: inactive

Query string: How was CCC(=O)OC1(C(=O)CCl)C(C)CC2C3CCC4=CC(=O)C=CC4(C)C3(F)C(O)CC21C (configuration not stated) classified in this test?
Result string: inactive

Query string: Outcome logged for CC1CC2C3CCC4=CC(=O)C=CC4(C)C3(Cl)C(O)CC2(C)C1(OC(=O)c1ccco1)C(=O)CCl (configuration not stated) in this assay:
Result string: active

Query string: Per the assay record, what outcome was assigned to C[C@@H](O)C#Cc1ccc2c(c1)O[C@@H](CN(C)C(=O)C1CCCCC1)[C@@H](C)CN([C@@H](C)CO)S2(=O)=O ?
Result string: inactive

Query string: What was the test verdict on C[C@@H]1CN([C@@H](C)CO)C(=O)c2c(c3ccccc3n2C)-c2ccccc2CO[C@@H]1CN(C)C(=O)[C@H](C)c1ccccc1 ?
Result string: inactive
